Ref: patent US7741355B2

Biological target: Trp-p8 (Homo sapiens, UniProt Q7Z2W7, T58I)
Construct: expressed in transfected cells; host or cells: CHO (Chinese Hamster Ovary) cells
Sequence (Q7Z2W7 whole entry T58I): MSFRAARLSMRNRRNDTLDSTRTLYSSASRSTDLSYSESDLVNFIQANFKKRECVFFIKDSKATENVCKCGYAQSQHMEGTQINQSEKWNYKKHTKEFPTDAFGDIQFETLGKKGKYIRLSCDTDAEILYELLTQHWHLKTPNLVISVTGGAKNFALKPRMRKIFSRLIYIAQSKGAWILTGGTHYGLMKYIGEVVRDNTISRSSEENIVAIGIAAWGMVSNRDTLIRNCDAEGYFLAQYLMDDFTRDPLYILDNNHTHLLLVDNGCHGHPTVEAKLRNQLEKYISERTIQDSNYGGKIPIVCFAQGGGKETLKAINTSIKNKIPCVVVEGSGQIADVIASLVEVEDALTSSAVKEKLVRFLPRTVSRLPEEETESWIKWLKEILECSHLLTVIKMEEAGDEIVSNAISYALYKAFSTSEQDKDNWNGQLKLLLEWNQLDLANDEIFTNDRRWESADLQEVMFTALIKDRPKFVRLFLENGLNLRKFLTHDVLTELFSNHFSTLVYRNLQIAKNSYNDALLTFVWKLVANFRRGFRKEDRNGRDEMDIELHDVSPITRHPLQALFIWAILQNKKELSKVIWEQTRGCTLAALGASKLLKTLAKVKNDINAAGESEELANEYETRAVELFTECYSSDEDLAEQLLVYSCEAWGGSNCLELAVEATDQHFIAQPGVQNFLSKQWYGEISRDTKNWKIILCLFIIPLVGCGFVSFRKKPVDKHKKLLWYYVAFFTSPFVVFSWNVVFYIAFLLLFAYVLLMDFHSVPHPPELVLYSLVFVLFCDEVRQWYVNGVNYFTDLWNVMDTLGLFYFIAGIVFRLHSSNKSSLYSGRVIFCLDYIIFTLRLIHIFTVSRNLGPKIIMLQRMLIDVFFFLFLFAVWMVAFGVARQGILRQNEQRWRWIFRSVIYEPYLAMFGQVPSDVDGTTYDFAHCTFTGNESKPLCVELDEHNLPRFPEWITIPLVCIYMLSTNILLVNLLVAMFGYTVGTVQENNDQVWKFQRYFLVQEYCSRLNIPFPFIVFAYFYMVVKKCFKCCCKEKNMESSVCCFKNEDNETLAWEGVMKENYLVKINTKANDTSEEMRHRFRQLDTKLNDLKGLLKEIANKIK
Test: ATP viability assay with CHO/Trp-p8 cells at 37° C.
Assay type: cell-based
Conditions: Table 5, Formula I-E; CHO/Trp-p8 cells, 24-26 hours at 37° C., 50% reduction in relative cell viability; read-out: EC50
Source text: Human Trp-p8 transfected CHO cells (referred to herein as CHO/Trp-p8) were generated for use in experiments of the present invention. […] The concentration of intracellular ATP declines very rapidly when metabolically active cells undergo necrosis and/or apoptosis. The ATP concentration and consequently the relative cell viability can be measured by established methods using commercially available reagents. […]
Could you please report measured EC50 for the items listed next?

*Q* // output EC50; input CCN(CC)CCNC(=O)c1cccc2c1n(CCN)c(=O)n2C(=O)[C@@H]1C[C@H](C)CC[C@H]1C(C)C ; system Trp-p8 (Homo sapiens, UniProt Q7Z2W7, T58I)
*A* 21 to 50 nM

*Q* Retrieve EC50 on Trp-p8 (Homo sapiens, UniProt Q7Z2W7, T58I); query CC(C)[C@@H]1CC[C@@H](C)C[C@H]1C(=O)n1c(=O)n(CCN)c2cc(OCC(=O)c3ccccc3)ccc21
*A* 21 to 50 nM

*Q* Give EC50 only, for CCCCOc1ccc2c(c1)n(CCN)c(=O)n2C(=O)[C@@H]1C[C@H](C)CC[C@H]1C(C)C , using Trp-p8 (Homo sapiens, UniProt Q7Z2W7, T58I) data.
*A* 51 to 100 nM
